- Tested on: IGROV-1
- Test Summary: SRB colorimetric assay of cell growth and viability, IGROV-1
- Assay type: cell-based, human
- Condition Details: 48 hours exposure
Recorded LC50 (concentration causing 50% net cell killing) by entry
Result Type: LC50 (concentration causing 50% net cell killing) (µM)

Compound	Measured Result
C/C=C1\NC(=O)[C@H](Cc2ccccc2)NC(=O)[C@@H](C(C)C)NC(=O)[C@@H]([C@@H](C)CC)NC(=O)[C@H](NC(=O)[C@H](NC(=O)[C@H](CCCN)NC(=O)[C@H]2CCCN2C(=O)[C@H](NC(=O)[C@@H](NC(=O)[C@@H](NC(=O)[C@H](NC(=O)CCCC(C)C)[C@H](C)O)[C@@H](C)O)C(C)C)C(C)C)[C@@H](C)CC)[C@@H](C)OC(=O)[C@H](C(C)C)NC1=O [Compound 41, [D-Thr^13]-KF]	3.13
C/C=C1\NC(=O)[C@H](Cc2ccccc2)NC(=O)[C@@H](C(C)C)NC(=O)[C@@H]([C@@H](C)CC)NC(=O)[C@H](NC(=O)[C@H](NC(=O)[C@H](CCCN)NC(=O)[C@H]2CCCN2C(=O)[C@H](NC(=O)[C@@H](NC(=O)[C@@H](NC(=O)[C@@H](CC2CCCCC2)NC(=O)CCCC(C)C)[C@@H](C)O)C(C)C)C(C)C)[C@@H](C)CC)[C@@H](C)OC(=O)[C@H](C(C)C)NC1=O [Compound 8, [D-Cha^13]-KF]	4.29
